- Test system: Plasmodium berghei
- EXPERIMENT_SUMMARY: Screen against P. berghei liver stage (PbLuc), transformed with Luciferase, at 2uM
- Type: functional, HepG2
- CONDITION_INFO: tested at 2 uM
Screen size: about 68,000 compounds; about 2,700 (4%) showed an effect of 50% or more. Shown is part of a subset that was picked to be rich in strong results.
Entries and their INHIBITION
Express the result in % but write the number alone.

INSERT INTO measurements (compound, value_measured) VALUES
  ('OCC1CCCCN1Cc1cc(O)c2cccc(F)c2n1 (stereo not given)', 24.36),
  ('CSCC(=O)N1CCC(Oc2cccc(C)c2)CC1', 10.91),
  ('Fc1ccc(OCCNC2CCN(Cc3ccccn3)CC2)c(F)c1', -31.26),
  ('COCC(=O)N1CCC(c2cc(-c3ccc(OC)cc3)n[nH]2)C1 (stereo not given)', -0.64),
  ('O=C(CC1CCCC1)N1CCOC(c2nc(-c3ncccn3)no2)C1 (stereo not given)', 57.82);

Which INHIBITION is listed for `O=S(=O)(c1cccs1)N1CCN(Cc2nc(-c3ccco3)cs2)CC1` ? 29.89

Also `Cc1ccc2nc(CN3CCN(C4CCCCC4)C(=O)C3)cc(O)c2c1` ? -17.17

Check COc1ccc(C2=CCN(C(=O)C3CCS(=O)(=O)C3)CC2)cc1 (stereo not given) too. -7.13

Now try O=C(Cc1ccccc1)N1CCOC(c2nc(-c3ncccn3)no2)C1 (stereo not given) . 0.18

Check `CN(Cc1ccc(F)cc1)C(=O)NCc1nnc2n1CCCCC2` too. -43.41
